# ASSAY_COMMENT: Plasma clearance in monkey
# Assay type: ADME, organism-based, Macaca mulatta
# TEST_CONDITIONS: rhesus monkey
MEASURED_PARAMETER: clearance (mL/min/kg)
Express it in mL/min/kg; write the number only.

Entry "CC(C)(C)c1nc2nc(-c3ccccc3Cl)c(-c3ccc(C#N)cc3)cc2c2n[nH]c(=O)n12" ; clearance = 5.3

---

# ASSAY_COMMENT: Bioavailability in rat
# Format: ADME, organism-based
# TEST_CONDITIONS: in vivo
MEASURED_PARAMETER: bioavailability (%)
Express the result in % but write the number alone.

Short answer for "CC(C)(C)c1nc2nc(-c3ccccc3Cl)c(-c3ccc(Cl)cc3)cc2c2n[nH]c(=O)n12" : bioavailability was 33

Just so you know, measured bioavailability for "CC(C)(C)c1nc2nc(-c3ccccc3Cl)c(-c3ccc(C#N)cc3)cc2c2n[nH]c(=O)n12" came out at 53

---

Please provide measured log10 IC50 for the entries that follow.
# STUDY_SYSTEM: Cannabinoid receptor 2 (Homo sapiens, UniProt P34972)
# Sequence (P34972 whole entry): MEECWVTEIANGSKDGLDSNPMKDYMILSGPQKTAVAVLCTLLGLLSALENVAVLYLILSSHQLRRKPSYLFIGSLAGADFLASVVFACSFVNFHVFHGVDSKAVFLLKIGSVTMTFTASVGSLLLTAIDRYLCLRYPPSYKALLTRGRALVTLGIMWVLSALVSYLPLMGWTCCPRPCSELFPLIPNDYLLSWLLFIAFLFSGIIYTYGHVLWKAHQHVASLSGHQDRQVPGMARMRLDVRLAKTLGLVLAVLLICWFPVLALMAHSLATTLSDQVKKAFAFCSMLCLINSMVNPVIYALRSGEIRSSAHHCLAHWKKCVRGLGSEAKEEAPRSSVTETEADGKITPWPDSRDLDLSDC
# ASSAY_COMMENT: Binding affinity to human cannabinoid CB2R expressed in CHO cells
Would you kindly interpret these values as log10 of IC50 expressed in µM?

Per the reported Cannabinoid receptor 2 (Homo sapiens, UniProt P34972) data, "CC(C)(C)c1nc2nc(-c3ccccc3Cl)c(-c3ccc(Cl)cc3)cc2c(=O)[nH]1" has log10 IC50 of 0.93

Recorded log10 IC50 for "CC(C)c1nc2nc(-c3ccccc3Cl)c(-c3ccc(Cl)cc3)cc2c(=O)[nH]1" on Cannabinoid receptor 2 (Homo sapiens, UniProt P34972) was 0.86

Cannabinoid receptor 2 (Homo sapiens, UniProt P34972) log10 IC50 of "CC(C)(C)c1nc(N)c2cc(-c3ccc(Cl)cc3)c(-c3ccc(Cl)cc3Cl)nc2n1" is 0.72

Readout log10 IC50 for "CC(C)(C)c1nc2nc(-c3ccc(C#N)cc3Cl)c(-c3ccc(Cl)cc3)cc2c2n[nH]c(=O)n12" , test system Cannabinoid receptor 2 (Homo sapiens, UniProt P34972), was 1.28

Entry "COc1ccc(-c2cc3c(nc2-c2ccccc2Cl)nc(C(C)(C)C)n2c(=O)[nH]nc32)cc1" under Cannabinoid receptor 2 (Homo sapiens, UniProt P34972) had log10 IC50 of -0.05

Simply: "CC(C)(C)c1nc2nc(-c3ccccc3Cl)c(-c3ccc(C(F)(F)F)cc3)cc2c2n[nH]c(=O)n12" , Cannabinoid receptor 2 (Homo sapiens, UniProt P34972), log10 IC50 = 0.96

Item "CN(C)c1ccc(-c2cc3c(nc2-c2ccccc2Cl)nc(C(C)(C)C)n2c(=O)[nH]nc32)cc1" was tested on Cannabinoid receptor 2 (Homo sapiens, UniProt P34972); the reported log10 IC50 is -0.11

Known value: Cannabinoid receptor 2 (Homo sapiens, UniProt P34972) log10 IC50 of the compound "CC(C)(C)c1nc2nc(-c3ccccc3C#N)c(-c3ccc(Cl)cc3)cc2c2n[nH]c(=O)n12" equals 0.38

Entry "COc1nc(C(C)(C)C)nc2nc(-c3ccccc3Cl)c(-c3ccc(Cl)cc3)cc12" ; assay system Cannabinoid receptor 2 (Homo sapiens, UniProt P34972); log10 IC50 recorded at 0.92

Measured log10 IC50 for this entry "CC(C)(C)c1nc(-c2ccc(F)cc2)c2cc(-c3ccc(Cl)cc3)c(-c3ccccc3Cl)nc2n1" on Cannabinoid receptor 2 (Homo sapiens, UniProt P34972): 0.99

Entry "CC(C)(C)c1nc2nc(-c3ccccc3Cl)c(-c3ccc(Cl)cc3)cc2c2nncn12" : log10 IC50 on Cannabinoid receptor 2 (Homo sapiens, UniProt P34972) = 0.53

Field log10 IC50 (system: Cannabinoid receptor 2 (Homo sapiens, UniProt P34972)) for entry "CC(C)(C)c1nc2nc(-c3ccccc3Cl)c(-c3cccc(Cl)c3)cc2c2n[nH]c(=O)n12" = 0.43

---

# STUDY_SYSTEM: Cannabinoid receptor 1 (Homo sapiens)
# Sequence (P21554 whole entry): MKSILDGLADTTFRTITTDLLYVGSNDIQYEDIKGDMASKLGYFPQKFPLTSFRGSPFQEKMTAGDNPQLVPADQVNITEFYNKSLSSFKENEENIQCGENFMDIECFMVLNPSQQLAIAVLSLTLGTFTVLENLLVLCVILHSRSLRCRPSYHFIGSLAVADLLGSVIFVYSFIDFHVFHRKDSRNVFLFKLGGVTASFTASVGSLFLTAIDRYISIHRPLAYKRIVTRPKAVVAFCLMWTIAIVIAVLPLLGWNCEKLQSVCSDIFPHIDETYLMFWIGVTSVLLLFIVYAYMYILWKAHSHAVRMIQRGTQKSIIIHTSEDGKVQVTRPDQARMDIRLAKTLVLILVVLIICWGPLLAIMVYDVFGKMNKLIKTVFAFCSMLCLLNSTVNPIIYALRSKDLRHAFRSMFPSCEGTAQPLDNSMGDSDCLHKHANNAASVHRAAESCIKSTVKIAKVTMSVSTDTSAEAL
# ASSAY_COMMENT: Inverse agonist activity at human cannabinoid CB1R expressed in CHO cells assessed as effect on cAMP accumulation
The threshold is 6 nM. Values of IC50 beneath it are tagged True; values meeting or exceeding it are tagged False.

Asked: Does the reported IC50 of "CC(C)(C)Nc1nc(C(C)(C)C)nc2nc(-c3ccccc3Cl)c(-c3ccc(Cl)cc3)cc12" stay below 6 nM?
Given back: True

Asked: Here's an entry: "CC(C)(C)c1nc(NCC(F)(F)CO)c2cc(-c3ccc(Cl)cc3)c(-c3ccccc3Cl)nc2n1" . Is its IC50 below 6 nM?
Given back: False

Asked: Strictly below 6 nM in IC50? "CN(C)c1ccc(-c2cc3c(nc2-c2ccccc2Cl)nc(C(C)(C)C)n2c(=O)[nH]nc32)cc1"
Given back: False

Asked: Regarding "CC(C)(C)c1nc(N)c2cc(-c3ccc(Cl)cc3)c(-c3ccccc3Cl)nc2n1" , kindly confirm whether its IC50 is beneath 6 nM.
Given back: False

Asked: Is IC50 of "COc1nc(C(C)(C)C)nc2nc(-c3ccccc3Cl)c(-c3ccc(Cl)cc3)cc12" strictly below 6 nM?
Given back: False

Asked: Lab note: confirm whether the reported IC50 for this compound is below 6 nM, equality not counting. compound: "CN(C)c1nc(C(C)(C)C)nc2nc(-c3ccccc3Cl)c(-c3ccc(Cl)cc3)cc12"
Given back: False

Asked: Given the entry "CC(C)(C)c1nc2nc(-c3ccccc3Cl)c(-c3ccc(C(F)(F)F)cc3)cc2c2n[nH]c(=O)n12" , would its reported IC50 be below 6 nM?
Given back: True

Asked: Just wondering, is IC50 of "CC(C)(C)c1nc2nc(-c3ccccc3Cl)c(-c3ccc(Cl)cc3)cc2c2n[nH]c(=O)n12" below 6 nM?
Given back: True

Asked: Lab note: confirm whether the reported IC50 for this compound is below 6 nM, equality not counting. compound: "Nc1nc(-c2ccc(Cl)cc2)nc2nc(-c3ccccc3Cl)c(-c3ccc(Cl)cc3)cc12"
Given back: False

Asked: Please state whether IC50 is below 6 nM for "CC(C)(C)c1nc2nc(-c3ccccc3C#N)c(-c3ccc(Cl)cc3)cc2c2n[nH]c(=O)n12"
Given back: True

Asked: Please state whether IC50 is below 6 nM for "CC(C)c1nc2nc(-c3ccccc3Cl)c(-c3ccc(Cl)cc3)cc2c(=O)[nH]1"
Given back: False
